# tested-target: UniProt:Q9H0H5
# Sequence (Q9H0H5 whole entry): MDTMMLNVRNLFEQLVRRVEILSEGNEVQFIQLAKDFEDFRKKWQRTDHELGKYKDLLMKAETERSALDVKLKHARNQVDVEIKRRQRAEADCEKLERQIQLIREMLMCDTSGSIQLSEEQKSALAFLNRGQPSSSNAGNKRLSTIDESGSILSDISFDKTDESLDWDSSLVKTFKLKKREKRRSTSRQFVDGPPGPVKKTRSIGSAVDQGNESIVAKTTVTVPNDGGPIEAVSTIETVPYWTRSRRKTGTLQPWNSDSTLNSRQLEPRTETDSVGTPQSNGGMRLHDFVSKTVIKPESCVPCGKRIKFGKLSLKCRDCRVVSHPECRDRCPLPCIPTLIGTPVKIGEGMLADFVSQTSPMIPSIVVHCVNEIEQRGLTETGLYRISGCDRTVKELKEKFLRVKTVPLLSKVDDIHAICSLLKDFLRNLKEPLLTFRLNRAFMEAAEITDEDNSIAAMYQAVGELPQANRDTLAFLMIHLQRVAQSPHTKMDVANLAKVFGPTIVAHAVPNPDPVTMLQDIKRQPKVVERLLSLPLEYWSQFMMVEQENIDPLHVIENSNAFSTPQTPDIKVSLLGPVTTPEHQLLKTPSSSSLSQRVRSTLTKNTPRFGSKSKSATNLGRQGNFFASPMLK
# assay-info: MgcRacGAP GTPase-activating activity inhibitors, confirmation, biochemical, ADP Hunter fluorescence, primary and confirmatory (AID 624330)
# Assay type: functional
The source made the active and inactive calls.
Please respond with reported IC50 for every item in the list.

Worked examples, 5 compounds total:
* CCN(CC)c1ccc(C(=C2C=CC(=[N+](CC)CC)C=C2)c2ccccc2)cc1 | 9.8 µM (active)
* Cc1nc2ccccc2nc1N/N=C/c1ccc(O)cc1 | 29.2 µM (active)
* COc1ccc(Nc2ccccc2)c(C)c1 | 44.9 µM (active)
* c1ccc(-c2ccccc2OCCN2CCOCC2)cc1 | 111 µM (active)
* CC1=NCCc2c1[nH]c1cc(O)ccc21 | 8.73 µM (active)

Hi! Can you tell me IC50 for each of these compounds?
1. CC(=O)Nc1ccc(S(=O)(=O)Nc2ccc(Nc3ccccc3)cc2)cc1
2. CN(C)c1ccc(/C=C/c2cc[n+](C)c3ccccc23)cc1.[O-][Cl+3]([O-])([O-])[O-]
3. Cc1nonc1C(=O)N/N=C/c1ccc(O)cc1O

// result
1. 70.1 µM (active)
2. 36.1 µM (active)
3. 69.4 µM (active)

For every item in the list below, what is its measured IC50?
1. COc1cc2oc(-c3ccc(O)cc3)cc(=O)c2c(OC)c1O
2. COc1ccc(CN2CCN(CCCCOc3ccc(Cl)cc3)CC2)c(OC)c1OC
3. OCCN1CCN(C(S)=Nc2cccc(C(F)(F)F)c2)CC1

// result
18.2 µM (active)
71.4 µM (active)
126 µM (active)

----------
So I've got a bunch of molecules here, and I need their AC50 values.
# tested-target: Cytochrome P450 2C9 (Homo sapiens)
# Sequence (P11712 whole entry): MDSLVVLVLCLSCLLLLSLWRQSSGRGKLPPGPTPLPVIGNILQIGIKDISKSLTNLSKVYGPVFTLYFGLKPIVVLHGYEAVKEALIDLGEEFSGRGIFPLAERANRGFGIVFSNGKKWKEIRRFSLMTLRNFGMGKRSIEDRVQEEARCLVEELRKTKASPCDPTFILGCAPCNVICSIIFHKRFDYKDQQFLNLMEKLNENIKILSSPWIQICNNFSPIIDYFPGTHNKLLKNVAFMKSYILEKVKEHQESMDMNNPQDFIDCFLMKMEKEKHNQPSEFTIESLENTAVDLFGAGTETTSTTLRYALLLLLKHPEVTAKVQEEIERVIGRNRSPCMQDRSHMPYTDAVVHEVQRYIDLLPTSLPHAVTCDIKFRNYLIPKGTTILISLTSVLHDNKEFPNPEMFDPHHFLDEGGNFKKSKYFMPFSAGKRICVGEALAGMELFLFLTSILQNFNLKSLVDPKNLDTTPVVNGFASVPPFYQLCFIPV

* Cc1ccc(-c2noc(-c3cc4ccccc4oc3=O)n2)cc1 | 6.31 µM (inconclusive)
* Cc1cc(C)n(-c2cc(N3CCN(S(=O)(=O)c4ccc(C)c(C)c4)CC3)ccc2[N+](=O)[O-])n1 | 2.24 µM (inconclusive)
* O=C(O)CCC(=O)N1CCc2cc(S(=O)(=O)NCc3cccs3)ccc21 | 31.6 µM (inconclusive)
* NCCCCCc1nnc(SCc2ccccc2Cl)o1 | 25.1 µM (inconclusive)
* CCC/C=C(\CCC)C(NP(=O)(c1ccccc1)c1ccccc1)c1ccccc1 (stereo not given) | 25.1 µM (inconclusive)

For each entry beneath this line, provide reported AC50.
1. CCCCC/C=C\C[C@H](O)/C=C\c1cccc(C[C@H](O)CCCCO)n1
2. COc1ccc(O[C@H]2C=C[C@@H](c3ccccc3)O[C@H]2COC(=O)CC/C(C)=N\O[C@@H](C)c2cc(-c3c(C)cc(C)cc3C)no2)cc1
3. Cc1cccc(NC(=S)N/N=C/c2ccc([N+](=O)[O-])s2)c1
4. CN(C)S(=O)(=O)c1cc([N+](=O)[O-])ccc1N1CCCCCC1

// result
20 µM (inconclusive)
1.58 µM (inconclusive)
1.78 µM (inconclusive)
11.2 µM (inconclusive)

// query Looking for the measured AC50 of "COC(=O)[C@H](Cc1ccccc1)NC(=O)[C@@H](C)CO" , can you help?
// result 3.98 µM (inconclusive)

----------
Would you mind telling me the reported IC50 of each entry?
# tested-target: Carboxy-terminal domain RNA polymerase II polypeptide A small phosphatase 1 (Homo sapiens, UniProt Q9GZU7)
# Sequence (Q9GZU7 whole entry, the tested form may be a part): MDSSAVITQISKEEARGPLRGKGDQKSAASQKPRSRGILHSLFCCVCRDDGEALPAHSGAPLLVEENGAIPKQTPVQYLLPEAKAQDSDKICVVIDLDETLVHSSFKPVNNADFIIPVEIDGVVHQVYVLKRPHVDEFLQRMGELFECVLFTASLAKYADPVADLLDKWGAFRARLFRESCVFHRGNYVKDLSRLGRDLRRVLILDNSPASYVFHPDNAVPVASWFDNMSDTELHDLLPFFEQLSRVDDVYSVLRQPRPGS
# assay-info: inhibitors of CTDSP1, concentration-response testing, biochemical assay, absorbance-based, actives from ultra-high-throughput screening (AID 540297)
# Format: functional
Active and inactive are the calls of the source.

Examples from the recorded data:
• Cc1ccc(Cl)cc1N1CCN(C(=O)CN(c2ccccc2)S(=O)(=O)N(C)C)CC1 = 5.49 µM (active)
• Nn1c(SCC(=O)NC(=O)NCc2ccco2)nnc1-c1ccc(OC(F)F)cc1 = 3.75 µM (active)
• O=C1Nc2ccccc2SC(c2ccccc2)C1O (centres undefined) = 5.33 µM (active)

Alright, here's another compound for you.
// query Param item = C[N+]1(CC2COC(c3ccco3)O2)CCCCC1 (centres undefined) ; retrieve measured IC50.
// result 3.23 µM (active)

----------
# tested-target: Kappa-type opioid receptor (Homo sapiens)
# Sequence (P41145 whole entry): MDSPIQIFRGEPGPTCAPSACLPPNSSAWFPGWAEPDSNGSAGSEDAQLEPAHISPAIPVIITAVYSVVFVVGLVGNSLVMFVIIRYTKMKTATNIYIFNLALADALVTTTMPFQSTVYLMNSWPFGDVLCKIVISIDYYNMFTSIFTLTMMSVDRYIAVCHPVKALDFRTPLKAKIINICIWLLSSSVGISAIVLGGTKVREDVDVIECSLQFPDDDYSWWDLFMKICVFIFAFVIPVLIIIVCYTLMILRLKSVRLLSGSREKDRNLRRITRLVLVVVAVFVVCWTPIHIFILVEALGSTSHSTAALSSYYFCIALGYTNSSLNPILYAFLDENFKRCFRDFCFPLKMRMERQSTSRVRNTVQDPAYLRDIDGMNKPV
# Type: functional
measured-property: IC50

• CC1CCc2c(nc3sc4c(c3c2N)CCCC4)C1 (configuration not stated) = > 32 µM

Next item in the queue.
// query If you can, please state the reported IC50 value of "Oc1cc(CSc2ccc(Cl)cc2)nc(-c2ccccn2)n1" .
// result > 32 µM

----------
# tested-target: Prothrombin (Homo sapiens, UniProt P00734)
# assay-info: Thrombin 1536 HTS Dose Response Confirmation. [Related pubchem assays: 1046 (Thrombin 1536 HTS; hits were confirmed in this assay)]
# Format: functional
Active and inactive are the calls of the source.
measured-property: IC50

Reference set, count: 5
• CCOc1cc(S(=O)(=O)NCc2ccc(OC)cc2)c(OCC)cc1-n1cnnn1 = > 50000 nM (not active)
• O=C(NCc1ccc2c(c1)OCO2)c1cnc2ccc(S(=O)(=O)N3CCOCC3)cc2c1O = 845 nM (active)
• COc1cc(C(=O)Nc2nc(-c3cccs3)cs2)cc(OC)c1OC = 2640 nM (active)
• Nc1nc(-c2cccnc2)nn1C(=O)c1ccc(F)cc1 = 2010 nM (active)
• CCOC(=O)CCNC(=O)N1CCCC(CNS(=O)(=O)c2cccs2)C1 (stereo unspecified) = > 50000 nM (not active)

// query Which IC50 value is on record for "CCCC(=O)n1nc(-c2cccnc2)nc1NCc1ccc(OC)cc1" ?
// result 88.3 nM (active)

----------
# tested-target: UniProt P41145
# Assay type: functional
measured-property: pEC50
Answers are plain numbers, as −log10 of the molar value.

// query Returns the measured pEC50 for the input compound. Input: "Clc1ccc(CSc2nnc(-c3ccccn3)n2Cc2ccco2)c(Cl)c1"
// result 5.66

----------
# tested-target: Histone-lysine N-methyltransferase NSD2 (Homo sapiens, UniProt O96028)
# Sequence (O96028 whole entry): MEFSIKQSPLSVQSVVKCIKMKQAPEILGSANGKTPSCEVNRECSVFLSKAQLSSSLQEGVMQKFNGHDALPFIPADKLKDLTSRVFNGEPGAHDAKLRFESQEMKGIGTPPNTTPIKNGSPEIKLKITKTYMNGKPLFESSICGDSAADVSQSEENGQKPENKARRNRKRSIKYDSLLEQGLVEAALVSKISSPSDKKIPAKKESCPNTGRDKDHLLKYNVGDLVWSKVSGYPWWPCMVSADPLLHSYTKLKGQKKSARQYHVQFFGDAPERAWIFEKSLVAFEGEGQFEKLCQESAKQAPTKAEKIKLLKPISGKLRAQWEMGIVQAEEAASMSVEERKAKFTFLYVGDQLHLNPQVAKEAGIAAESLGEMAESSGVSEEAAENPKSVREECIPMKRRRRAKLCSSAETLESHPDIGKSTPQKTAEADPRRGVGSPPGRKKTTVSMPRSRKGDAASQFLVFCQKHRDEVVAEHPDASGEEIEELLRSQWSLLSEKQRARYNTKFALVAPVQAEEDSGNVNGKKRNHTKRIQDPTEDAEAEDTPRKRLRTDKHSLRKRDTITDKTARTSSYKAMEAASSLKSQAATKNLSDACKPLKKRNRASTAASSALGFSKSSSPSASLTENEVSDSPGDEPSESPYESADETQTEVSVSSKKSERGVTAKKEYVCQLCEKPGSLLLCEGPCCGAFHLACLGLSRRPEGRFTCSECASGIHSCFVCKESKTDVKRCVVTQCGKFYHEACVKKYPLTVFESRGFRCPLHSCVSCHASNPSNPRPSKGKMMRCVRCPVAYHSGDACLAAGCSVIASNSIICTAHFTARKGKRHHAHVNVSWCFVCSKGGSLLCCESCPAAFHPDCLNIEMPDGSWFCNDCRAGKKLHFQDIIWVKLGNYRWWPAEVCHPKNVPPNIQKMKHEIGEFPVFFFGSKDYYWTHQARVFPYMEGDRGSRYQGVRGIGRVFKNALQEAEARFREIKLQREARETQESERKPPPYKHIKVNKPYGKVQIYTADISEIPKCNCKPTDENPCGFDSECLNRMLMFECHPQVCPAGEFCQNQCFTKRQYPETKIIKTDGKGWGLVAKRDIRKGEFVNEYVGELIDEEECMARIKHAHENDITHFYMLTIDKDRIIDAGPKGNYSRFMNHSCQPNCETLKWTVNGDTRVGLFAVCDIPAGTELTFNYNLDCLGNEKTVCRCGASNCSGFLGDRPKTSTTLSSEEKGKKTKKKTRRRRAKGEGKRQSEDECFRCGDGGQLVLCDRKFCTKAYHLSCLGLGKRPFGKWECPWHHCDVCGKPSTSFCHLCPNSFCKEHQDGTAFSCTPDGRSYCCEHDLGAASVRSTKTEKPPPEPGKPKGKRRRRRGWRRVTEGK
# Format: biochemical
Activity calls are given as the source filed them.
Log the outcome using a class from active, inactive

Please review the following examples before continuing.
- O=C(O)C(c1ccccc1)N1C(=O)/C(=C\c2ccc(O)c(O)c2)SC1=S (stereo not given): active
- O=C(COc1ccccc1)N/N=C/c1sc(=O)n(Cc2cccc(C(=O)O)c2)c1Cl: inactive
- CN(C)c1ccc(/C=C/c2cc[n+](C)c3ccccc23)cc1.[O-][Cl+3]([O-])([O-])[O-]: active

// query # fetch the recorded call for CNCCC1Sc2ccccc2Oc2ccccc21 (stereo not given) here
// result inactive

// query Field entry: "CCNCCC(=O)N1c2ccccc2Sc2ccc(C(F)(F)F)cc21"
// result inactive

----------
# Tested on: H4
# assay-info: Luminescence Cell-Based Dose Response HTS to Identify Activators of 5'UTR Stem-Loop Driven Prion Protein mRNA Translation in H4 Neuroglioblastoma Cells. [Related pubchem assays: 1829 (Project Summary), 1814 (Primary HTS)]
# Format: functional
# condition-description: Homo sapiens
Activity calls are given as the source filed them.
measured-property: EC50

// below: answered molecules
* COc1ccc(C(=O)/C=C/Sc2nc3ccccc3o2)cc1 | 14.5 µM (active)
* Cn1c(-c2ccc(F)cc2)cnc1SCC(=O)Nc1ccccc1N1CCOCC1 | 0.244 µM (active)
* CC(Cc1cccs1)NC(=O)NC1CCCCC1 (stereo not given) | 39.8 µM (active)
* Cc1cc(Nc2nc3ccccc3nc2Cl)n(-c2ccccc2)n1 | > 120 µM (not active)

Now for another entry.
// query // lookup EC50 | system=H4 | key= "CCc1nnc2c3cnn(-c4ccccc4)c3ncn12"
// result > 120 µM (not active)

----------
# tested-target: Genome polyprotein (dengue virus type 2, UniProt P29990)
# assay-info: Dengue-2 NS5 methyltransferase inhibitors, primary screen, biochemical, confirmation dose response (AID 588689)
# Assay type: functional
Calls of active or inactive are those of the source.
Please respond with reported IC50 for every item in the list.

Below, 5 compounds whose answers are already recorded.
- CCN(CC)c1ccc(C(=C2C=CC(=[N+](CC)CC)C=C2)c2ccccc2)cc1: 24.9 µM (active)
- CSc1nnc(NC(=O)c2nc(S(=O)(=O)Cc3ccccc3)ncc2Cl)s1: 50.6 µM (active)
- Fc1cccc2sc(Nc3nnc(-c4ccccc4)o3)nc12: 50.2 µM (active)
- NS(=O)(=O)c1ccc(N/N=C/c2ccc(O)c(O)c2O)c([N+](=O)[O-])c1: 4.59 µM (active)
- O=C(COc1cccc2ccccc12)Nc1ccc(Cl)cc1C(=O)O: 37.7 µM (active)

Please look at the items below and tell me IC50 for each one, in order.
1. CCCc1nc2[nH]c(C)c(NS(=O)(=O)c3ccc(C4CCCCC4)cc3)c(=O)n2n1
2. COC(=O)c1sc(N2C(=O)C(O)=C(C(=O)c3ccc(C)o3)C2c2ccc([N+](=O)[O-])cc2)nc1C (stereo unspecified)
3. Nc1nc(O)cc(N=Nc2ccc(O)cc2)n1
4. O=C(O)/C=C/C(=O)Nc1ccc(C2(c3ccc(NC(=O)/C=C/C(=O)O)cc3)c3ccccc3-c3ccccc32)cc1
5. COc1ccc(/C=C2\C(=O)ON=C2c2ccccc2)cc1OC

// result
61.1 µM (active)
38.5 µM (active)
26.7 µM (active)
18.1 µM (active)
95.4 µM (active)

// query # get_value(readout='IC50', item= "Cc1ccc(C(C2C(=O)CC(C)(C)CC2=O)C2C(=O)CC(C)(C)CC2=O)s1" )
// result 46.4 µM (active)
